Values compiled from ChEMBL document CHEMBL1201862.

Overview of recorded EC50 for various molecules
Target: Heat shock factor protein 1 (Mus musculus)
Assay: decrease of HSF1-responsive luciferase luminescence – cell-based, NIH3T3, dose retest, confirmation (AID 2382)
Type: functional

CN(Cc1ccccc1)C(=O)CCS(=O)(=O)c1ccc2c(c1)n(C)c(=O)c(=O)n2C    > 195 µM (not active)
CCCC1=Nc2cc(C(=O)NCCCN3CCN(C)CC3)ccc2Sc2ccccc21    > 195 µM (not active)
COc1ccc(CN2CCC(C(=O)Nc3ccc(Oc4cccnc4)cc3)CC2)c(C)c1C    > 195 µM (not active)
CCN1CCN(C(=O)C2CCN(C(=O)c3cc4sccc4n3CC)CC2)CC1    > 195 µM (not active)

Value of EC50 reported for the molecule CC(=O)Nc1cccc(C(=O)/C=C/c2ccc(C)cc2)c1 is > 195 µM (not active)

----------
Overview of recorded EC50 for various molecules
Biological target: Heat shock factor protein 1 (Mus musculus)
Sequence (P38532 whole entry): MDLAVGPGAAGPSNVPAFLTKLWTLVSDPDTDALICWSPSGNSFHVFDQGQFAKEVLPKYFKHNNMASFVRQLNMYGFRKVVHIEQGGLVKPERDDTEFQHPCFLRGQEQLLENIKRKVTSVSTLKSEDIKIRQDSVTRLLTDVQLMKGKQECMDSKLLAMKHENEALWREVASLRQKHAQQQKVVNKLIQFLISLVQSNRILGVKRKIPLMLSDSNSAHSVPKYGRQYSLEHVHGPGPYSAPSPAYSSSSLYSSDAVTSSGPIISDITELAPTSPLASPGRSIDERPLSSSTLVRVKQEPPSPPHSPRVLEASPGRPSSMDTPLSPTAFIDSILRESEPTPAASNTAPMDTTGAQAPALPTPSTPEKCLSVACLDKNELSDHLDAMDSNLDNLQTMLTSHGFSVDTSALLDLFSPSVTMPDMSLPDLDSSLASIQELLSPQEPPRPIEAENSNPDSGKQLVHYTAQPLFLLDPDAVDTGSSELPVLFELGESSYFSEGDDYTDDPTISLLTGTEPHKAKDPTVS
Test: decrease of HSF1-responsive luciferase luminescence – cell-based, NIH3T3, dose retest, confirmation (AID 2382)
Assay type: functional
Calls of active or inactive are those of the source. Rule as the data show it: actives have a measured EC50 and inactives only a lower limit.

Below, each entry is followed by its recorded EC50 result.
CCn1c(=O)n(CC)c2cc(N3CCCC3)c(NC(=O)c3ccc(OC)c(Br)c3)cc21    > 195 µM (not active)
CCOC(=O)COc1ccccc1/C=C\[N+](=O)[O-]    4.03 µM (active)
CCCS(=O)(=O)N1CCc2cc(OC)c(OC)cc2C1    > 195 µM (not active)
O=C(COc1ccc(F)cc1Cl)Nc1nc(-c2ccccn2)cs1    41.4 µM (active)
Cn1c(-c2nonc2N)nc2ccccc21    > 195 µM (not active)
Cn1c(C(C#N)C(=O)c2sc3ccccc3c2Cl)nc2ccccc21 (stereo not drawn)    > 195 µM (not active)

Value sought: EC50, system Heat shock factor protein 1 (Mus musculus), item CCOc1ccc(CNCCCSc2ncccn2)cc1OC . Result: > 195 µM (not active)

----------
Target: Heat shock factor protein 1 (Mus musculus, UniProt P38532)
Test: decrease of HSF1-responsive luciferase luminescence – cell-based, NIH3T3, dose retest, confirmation (AID 2382);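 note: NIH3T3 fibroblasts with HSF1-driven luciferase reporter stressed by proteasome inhibitor MG132; luminescence from HSF1-driven luciferase expression after 8 hours of MG132 stress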
Assay type: functional
The source made the active and inactive calls. Cut-off read from the data, not from the text of the source: actives have a measured EC50 and inactives only a lower limit.
Overview of recorded EC50 for various molecules

Below, each entry is followed by its recorded EC50 result.
COc1cc2c(cc1OC)C(c1cc(Br)ccc1F)N(C(=O)CCl)CC2 (stereo unspecified)    3.09 µM (active)
CC1=C(C(=O)Nc2ccccc2)C(c2cc(CN3CCOCC3)cs2)C2=C(O)CCCC2=N1 (stereo unspecified)    > 195 µM (not active)
CC(C)CCc1c(O)nc(SCC(=O)N2CCCCCC2)nc1O    > 195 µM (not active)
Cc1cc(C(=O)COC(=O)c2ccccc2Br)c(C)n1CC1CCCO1 (stereo unspecified)    < 0.16 µM (active)
CCOC(=O)Cc1cc(O)c2cc(C)ccc2n1    86.1 µM (active)

Value of EC50 reported for the molecule COc1ccccc1-n1ccnc(SCC(=O)NCc2ccccc2)c1=O is > 195 µM (not active)

Value of EC50 reported for the molecule COc1ccc(Nc2nc(C)cc(C)c2C#N)cc1OC is > 195 µM (not active)

Value of EC50 reported for the molecule O=C(c1ccc([N+](=O)[O-])cc1)N1CCN(c2ncc(Br)cn2)CC1 is > 195 µM (not active)

Value of EC50 reported for the molecule CCCCOc1ccc(C2C(=O)N(C3CCCCC3)CC(=O)N2CC2CCCO2)cc1 (stereo unspecified) is > 195 µM (not active)

Value of EC50 reported for the molecule CSc1nsc(SCC(=O)NCc2ccc(C)cc2)n1 is > 195 µM (not active)

Value of EC50 reported for the molecule Nc1nonc1-c1noc(-c2ccccc2Br)n1 is > 195 µM (not active)
